Tested on: SK-MEL-28
Assay: Growth inhibition of human SK-MEL-28 cells assessed as cell growth at 10^-6 M incubated for 48 hrs by sulforhodamine B assay relative to control
Format: functional
Conditions: SK-MEL-28, 48 h, read-out: Activity
Measurement Name: growth at 1 µM (%)
Report the figure in % without appending any unit label.

**Query** Given the entry C#C[C@@]1(O)[C@@H](CO)O[C@@H](n2cc(F)c3c(N)ncnc32)[C@@H]1O , what growth at 1 µM was observed with SK-MEL-28?
**Result** 72

**Query** Param readout= growth at 1 µM; system= SK-MEL-28; entry= C#C[C@@]1(O)[C@@H](CO)O[C@@H](n2ccc3c(N)ncnc32)[C@@H]1O ; returns value.
**Result** 94
